Values from patent US11795460B2

Tested on: TTR
assayComment: TTR editing in primary human hepatocytes transfected with Spy Cas9 mRNA and sgRNAs (Table 13)
Assay type: cell-based
protocolConditions: primary human hepatocytes co-transfected with Spy Cas9 mRNA (SEQ ID NO:2) and sgRNAs, 12.5 nM
Strand notation (5' to 3'): a small letter for the sugar, then the base; units joined by * are phosphorothioate-linked, units joined directly phosphodiester-linked; [ ] holds rarer units or linkages, { } end groups; capitals alone tell only the bases. m = 2'-O-methyl; r = 2'-OH (RNA)
Collected Avg % Insert values appear next to each entry.
readoutName: Avg % Insert (%)

[[record]]
molecule = "G000487: TTR sgRNA modified sequence, Human, SEQ ID No. 94; guide sequence of CR003357 (nucleic acid) guide: mU*mU*mC*rUrUrUrGrGrCrArArCrUrUrArCrCrCrArGrGrUrUrUrUrArGrAmGmCmUmAmGmAmAmAmUmAmGmCrArArGrUrUrArArArArUrArArGrGrCrUrArGrUrCrCrGrUrUrArUrCrAmAmCmUmUmGmAmAmAmAmAmGmUmGmGmCmAmCmCmGmAmGmUmCmGmGmUmGmCmU*mU*mU*mU"
quantityunit = "%"
observedmeasurement = 47.38

[[record]]
molecule = "G000483: TTR sgRNA modified sequence, Human, SEQ ID No. 90; guide sequence of CR005298 (nucleic acid) guide: mU*mC*mC*rArCrUrCrArUrUrCrUrUrGrGrCrArGrGrArGrUrUrUrUrArGrAmGmCmUmAmGmAmAmAmUmAmGmCrArArGrUrUrArArArArUrArArGrGrCrUrArGrUrCrCrGrUrUrArUrCrAmAmCmUmUmGmAmAmAmAmAmGmUmGmGmCmAmCmCmGmAmGmUmCmGmGmUmGmCmU*mU*mU*mU"
quantityunit = "%"
observedmeasurement = 4.05

[[record]]
molecule = "G000482: TTR sgRNA modified sequence, Human, SEQ ID No. 89; guide sequence of CR003365 (nucleic acid) guide: mU*mG*mU*rArGrArArGrGrGrArUrArUrArCrArArArGrGrUrUrUrUrArGrAmGmCmUmAmGmAmAmAmUmAmGmCrArArGrUrUrArArArArUrArArGrGrCrUrArGrUrCrCrGrUrUrArUrCrAmAmCmUmUmGmAmAmAmAmAmGmUmGmGmCmAmCmCmGmAmGmUmCmGmGmUmGmCmU*mU*mU*mU"
quantityunit = "%"
observedmeasurement = 27.70

[[record]]
molecule = "G000489: TTR sgRNA modified sequence, Human, SEQ ID No. 96; guide sequence of CR003344 (nucleic acid) guide: mU*mU*mU*rGrArCrCrArUrCrArGrArGrGrArCrArCrUrGrUrUrUrUrArGrAmGmCmUmAmGmAmAmAmUmAmGmCrArArGrUrUrArArArArUrArArGrGrCrUrArGrUrCrCrGrUrUrArUrCrAmAmCmUmUmGmAmAmAmAmAmGmUmGmGmCmAmCmCmGmAmGmUmCmGmGmUmGmCmU*mU*mU*mU"
quantityunit = "%"
observedmeasurement = 14.17

[[record]]
molecule = "G000494: TTR sgRNA modified sequence, Human, SEQ ID No. 101; guide sequence of CR003360 (nucleic acid) guide: mG*mU*mG*rArGrUrCrUrGrGrArGrArGrCrUrGrCrArUrGrUrUrUrUrArGrAmGmCmUmAmGmAmAmAmUmAmGmCrArArGrUrUrArArArArUrArArGrGrCrUrArGrUrCrCrGrUrUrArUrCrAmAmCmUmUmGmAmAmAmAmAmGmUmGmGmCmAmCmCmGmAmGmUmCmGmGmUmGmCmU*mU*mU*mU"
quantityunit = "%"
observedmeasurement = 25.17

[[record]]
molecule = "G000568: TTR sgRNA modified sequence, Human, SEQ ID No. 110; guide sequence of CR003391 (nucleic acid) guide: mG*mG*mC*rUrGrUrCrGrUrCrArCrCrArArUrCrCrCrArGrUrUrUrUrArGrAmGmCmUmAmGmAmAmAmUmAmGmCrArArGrUrUrArArArArUrArArGrGrCrUrArGrUrCrCrGrUrUrArUrCrAmAmCmUmUmGmAmAmAmAmAmGmUmGmGmCmAmCmCmGmAmGmUmCmGmGmUmGmCmU*mU*mU*mU"
quantityunit = "%"
observedmeasurement = 43.00

